ΔTm values, listed per item
Molecular target: Peregrin (Homo sapiens) (UniProt P55201)
Sequence (P55201 whole entry): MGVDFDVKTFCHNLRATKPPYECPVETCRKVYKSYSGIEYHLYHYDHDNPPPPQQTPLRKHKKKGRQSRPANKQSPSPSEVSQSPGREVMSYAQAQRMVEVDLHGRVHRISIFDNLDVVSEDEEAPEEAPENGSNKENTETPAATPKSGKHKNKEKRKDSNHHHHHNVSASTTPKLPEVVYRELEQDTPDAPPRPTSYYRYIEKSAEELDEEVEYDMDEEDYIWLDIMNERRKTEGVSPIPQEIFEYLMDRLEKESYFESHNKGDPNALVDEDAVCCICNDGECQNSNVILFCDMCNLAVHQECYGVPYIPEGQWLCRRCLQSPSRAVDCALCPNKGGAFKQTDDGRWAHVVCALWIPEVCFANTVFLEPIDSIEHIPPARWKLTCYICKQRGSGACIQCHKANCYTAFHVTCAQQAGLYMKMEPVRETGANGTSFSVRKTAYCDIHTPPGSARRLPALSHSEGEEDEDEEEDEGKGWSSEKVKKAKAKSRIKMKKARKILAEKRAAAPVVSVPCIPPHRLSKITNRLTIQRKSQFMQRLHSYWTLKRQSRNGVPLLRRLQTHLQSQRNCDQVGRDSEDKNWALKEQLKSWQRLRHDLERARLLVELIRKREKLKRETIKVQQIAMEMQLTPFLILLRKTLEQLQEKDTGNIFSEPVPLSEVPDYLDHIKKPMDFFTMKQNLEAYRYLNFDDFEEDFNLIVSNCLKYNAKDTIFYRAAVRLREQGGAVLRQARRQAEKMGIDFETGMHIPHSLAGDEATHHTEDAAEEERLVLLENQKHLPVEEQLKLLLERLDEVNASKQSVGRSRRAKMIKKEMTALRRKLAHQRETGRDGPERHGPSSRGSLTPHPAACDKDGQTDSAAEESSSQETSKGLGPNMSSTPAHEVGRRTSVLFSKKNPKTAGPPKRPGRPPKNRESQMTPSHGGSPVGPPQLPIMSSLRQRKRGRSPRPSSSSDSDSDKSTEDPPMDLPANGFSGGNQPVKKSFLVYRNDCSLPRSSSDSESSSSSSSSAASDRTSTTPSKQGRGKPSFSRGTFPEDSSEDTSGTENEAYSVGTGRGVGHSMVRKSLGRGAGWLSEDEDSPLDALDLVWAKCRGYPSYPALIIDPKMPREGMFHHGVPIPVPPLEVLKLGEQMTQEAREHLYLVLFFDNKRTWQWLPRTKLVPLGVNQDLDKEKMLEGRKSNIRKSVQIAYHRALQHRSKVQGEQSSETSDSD
Conditions: Compound concentration 20.0 uM, Protein concentration 2.0 uM, Result type QC Liability
Please respond with the number in °C and leave the unit unwritten.

Would you please look over these solved cases?
COc1cc(-c2cncc(-c3ccc(N4CCN(C(C)C)CC4)cc3)c2C)cc(F)c1C(N)=O | -1.51
Cn1cc(C(=O)O)c2ccc(N3CCC(OCc4c(-c5c(Cl)cccc5Cl)noc4C4CC4)CC3)cc21 | -1.9
C/C=C1\C(=O)CC2C3CCC4=CC(=O)CC[C@]4(C)C3CC[C@]12C (some centres not stated) | -1.36
CC(=O)Nc1c(F)cc(C(=O)N[C@H]2CC[C@H](O)CC2)cc1O[C@@H](C)c1ccccc1 | -0.36
CCc1nc(-c2cccc(C)c2)c(-c2ccncc2)s1 | -0.75

Give ΔTm for this entry on Peregrin (Homo sapiens) (UniProt P55201): CCCNc1ccc2ncc(-c3ccncc3)n2n1
0.26

Name the recorded ΔTm of C=C[C@@]12CCc3cc(O)ccc3[C@H]1CC[C@@]1(C)[C@H]2CC[C@@H]1O , assay system Peregrin (Homo sapiens) (UniProt P55201).
-6.72

Tell me its ΔTm on Peregrin (Homo sapiens) (UniProt P55201): CSc1ccc(C(=O)/C=C/c2cc(C)c(OC(C)(C)C(=O)O)c(C)c2)cc1
-1.39

Provide Peregrin (Homo sapiens) (UniProt P55201) ΔTm reading for CC(=O)N1CCN([C@H]2CCC[C@@H](NC(=O)c3cc4c(F)ccc(C)c4[nH]3)C2)CC1 .
-1.84

Given NCC1CCC(CNc2nc(NCc3ccccc3OC(F)(F)F)ncc2[N+](=O)[O-])CC1 (configuration not stated) , report its ΔTm on Peregrin (Homo sapiens) (UniProt P55201).
0.06

Report ΔTm from Peregrin (Homo sapiens) (UniProt P55201) testing of COc1cc(C(=O)NCCOCCOCCOCC(=O)N[C@H](C(=O)N2C[C@@H](O)C[C@H]2C(=O)NCc2ccc(-c3scnc3C)cc2)C(C)(C)C)ccc1Nc1ncc(C(F)(F)F)c(Oc2cccc3c2C(=O)CC3)n1
1.72

# lookup: Peregrin (Homo sapiens) (UniProt P55201) ΔTm, key = COc1ccc(CC[C@@H](OC(=O)[C@@H]2CCCCN2C(=O)[C@H](c2cc(OC)c(OC)c(OC)c2)C2CCCCC2)c2cccc(OCCN3CCOCC3)c2)cc1OC
-5.77
